Listing of recorded inhibition at 33 µM by entry.
Study target: HCV-NS5b (Hepatitis C virus genotype 1b)
Construct: (His)6 (C); made in house; host or cells: XL-1 cells (E. coli), IPTG-inducible plasmid, nickel-NTA purification
Protocol details: HCV-NS5b enzyme assay (incorporation of radiolabeled UTP)
Format: biochemical
Condition notes: enzyme inhibition at compound concentration of 33 uM
The figure you give is taken to be in %; do not add the unit.

Some solved cases for reference:
{"columns": ["Compound", "Observed result"],
 "data": [
  ["O=C(N[C@@H](Cc1c[nH]c2ccc(O)cc12)C(=O)O)c1ccc2c(c1)nc(-c1ccc3cc(-c4ccccc4)cnc3c1)n2C1CCCCC1 [Compound 516]", 99.3],
  ["O=C(O)c1cnc2c(c1)nc(-c1ccc3nc(-c4ccccc4-c4ccc(Cl)cc4)ccc3c1)n2C1CCCCC1 [Compound 490]", 95.9],
  ["O=C(O)c1ccc2c(c1)nc(-c1ccc3nc(-c4cc(O)ccc4-c4ccccc4)ccc3c1)n2C1CCCCC1 [Compound 487]", 102],
  ["COc1ccc(-c2ccc(Cl)cc2)c(-c2ccc3cc(-c4nc5cc(C(=O)O)ccc5n4C4CC(C)CC(C)(C)C4)ccc3n2)c1 (stereo not drawn) [Compound 555]", 101]
]}

Lookup result for O=C(O)c1ccc2c(c1)nc(-c1ccc3nc(-c4cc[nH]c4)ccc3c1)n2C1CCCCC1 [Compound 432] ; measured inhibition at 33 µM: 88.9
